These data points were gathered from patent US20160319277A1.

Tested on: HEK-CMV-Luc2-Hygro cells
Test: High-throughput genome-wide siRNA screen and validation screen for luciferase expression
Assay type: cell-based, human
Settings: Table 4; primary screen, 72 h, negative control = 100%
Below, each entry is listed with its recorded per cell luciferase yield (%).
Answer with a number only, understood to be in %.

97 (GAUGAAGAAUGAUAAGUCATT; chemistry not given here; listed as Homo sapiens) [compound 97] ... 184.201
183 (CAACAGAUCAGAGAACAAATT; chemistry not given here; listed as Homo sapiens) [compound 183] ... 156.418
130 (GGAGGAAUCUCGAAUGCGATT; chemistry not given here; listed as Homo sapiens) [compound 130] ... 173.284

Look up per cell luciferase yield (%) for this substance: 103 (GACAUUGGAUCAUACUAAATT; chemistry not given here; listed as Homo sapiens) [compound 103]
185.522

Would you kindly repeat that for 188 (GGAAGAACGUCUUGCACAATT; chemistry not given here; listed as Homo sapiens) [compound 188] ?
183.071

// repeat for 151 (GAAACUGCAUGAGAAGACATT; chemistry not given here; listed as Homo sapiens) [compound 151] and report
288.857
